Reported logP values are given for each entry in this list.

>  <MOLECULE>
CN1CCOC(O)(c2cccc(C(F)(F)F)c2)C1 (stereo unspecified)

>  <logP>
1.39

$$$$
>  <MOLECULE>
CC1C(c2ccccc2)OC(O)(c2ccccc2)CN1C (stereo unspecified)

>  <logP>
1.87

$$$$
>  <MOLECULE>
CCCOC1(c2ccc(Br)cc2)CN(C)CCO1 (stereo unspecified)

>  <logP>
2.19

$$$$
>  <MOLECULE>
CCCCCCCCOC1(c2ccccc2)CN(C)CCO1 (stereo unspecified)

>  <logP>
2.32

$$$$
>  <MOLECULE>
CN1CCOC(OCCc2ccccc2)(c2ccccc2)C1 (stereo unspecified)

>  <logP>
2.11

$$$$
>  <MOLECULE>
CN1CCOC(O)(c2ccc(Br)cc2)C1 (stereo unspecified)

>  <logP>
1.57

$$$$
